target: Calcium/calmodulin-dependent protein kinase type IV (Homo sapiens) (UniProt Q16566); settings: at 0.1 µM;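 note: each value is a mean inhibition of CAMK4, part of the GSK PKIS kinase screening panel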
Sequence (Q16566 whole entry): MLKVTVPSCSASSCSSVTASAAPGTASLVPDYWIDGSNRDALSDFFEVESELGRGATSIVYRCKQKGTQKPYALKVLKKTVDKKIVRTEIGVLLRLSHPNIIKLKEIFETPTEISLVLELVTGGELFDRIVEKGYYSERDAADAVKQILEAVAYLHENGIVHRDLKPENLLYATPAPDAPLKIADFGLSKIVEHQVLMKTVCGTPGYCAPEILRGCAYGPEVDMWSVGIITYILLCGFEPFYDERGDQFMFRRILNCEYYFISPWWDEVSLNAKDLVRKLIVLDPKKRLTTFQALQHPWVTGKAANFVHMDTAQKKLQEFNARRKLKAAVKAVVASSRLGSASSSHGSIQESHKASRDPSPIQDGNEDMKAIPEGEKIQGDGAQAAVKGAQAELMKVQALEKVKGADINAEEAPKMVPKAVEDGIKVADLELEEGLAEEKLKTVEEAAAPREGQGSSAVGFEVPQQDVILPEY
Catalogue of compounds with associated inhibition
OBSERVED_PROPERTY: inhibition (%)

[[record]]
compound_structure_string = "CC(=O)Nc1cccc(C#Cc2cncnc2Nc2ccc(OCc3cccc(F)c3)c(Cl)c2)n1"
observed_property = "inhibition"
reported_measurement = -4.11

[[record]]
compound_structure_string = "O=C(Nc1n[nH]c2nc(-c3ccco3)c(Br)cc12)C1CC1"
observed_property = "inhibition"
reported_measurement = 1.47

[[record]]
compound_structure_string = "Nc1ncnc2occ(-c3ccc(NC(=O)Nc4cccc(C(F)(F)F)c4)cc3)c12"
observed_property = "inhibition"
reported_measurement = -0.91

[[record]]
compound_structure_string = "Nc1ncnc2occ(-c3ccc(NC(=O)Nc4cc(C(F)(F)F)cc(C(F)(F)F)c4)cc3)c12"
observed_property = "inhibition"
reported_measurement = 0.17

[[record]]
compound_structure_string = "Nc1nc(-c2ccc3c(c2)C(=Cc2cc(Br)c(O)c(Br)c2)C(=O)N3)cs1"
observed_property = "inhibition"
reported_measurement = -0.65

[[record]]
compound_structure_string = "CCn1c(-c2nonc2N)nc2c(C#CC(C)(C)O)nc(OC[C@@H](N)c3ccccc3)cc21"
observed_property = "inhibition"
reported_measurement = 2.61

[[record]]
compound_structure_string = "COc1ccc(-c2ccncc2)cc1C(N)=O"
observed_property = "inhibition"
reported_measurement = -1.04

[[record]]
compound_structure_string = "COC(=O)Nc1nc2cc(Oc3ccc(NC(=O)Nc4cccc(C(=O)O)c4)cc3)ccc2[nH]1"
observed_property = "inhibition"
reported_measurement = -1.16

[[record]]
compound_structure_string = "COc1ccccc1Nc1ncc(-c2ccccc2)o1"
observed_property = "inhibition"
reported_measurement = 0.89

[[record]]
compound_structure_string = "CN(C)c1cc2c(Nc3ccc4nc(Cc5ccccc5)[nH]c4c3)ncnc2cn1"
observed_property = "inhibition"
reported_measurement = 1.47


* * *

Catalogue of molecules with associated inhibition
biological target: Serine/threonine-protein kinase Sgk1 (Homo sapiens) (UniProt O00141); conditions: at 0.1 µM
Sequence (O00141 whole entry): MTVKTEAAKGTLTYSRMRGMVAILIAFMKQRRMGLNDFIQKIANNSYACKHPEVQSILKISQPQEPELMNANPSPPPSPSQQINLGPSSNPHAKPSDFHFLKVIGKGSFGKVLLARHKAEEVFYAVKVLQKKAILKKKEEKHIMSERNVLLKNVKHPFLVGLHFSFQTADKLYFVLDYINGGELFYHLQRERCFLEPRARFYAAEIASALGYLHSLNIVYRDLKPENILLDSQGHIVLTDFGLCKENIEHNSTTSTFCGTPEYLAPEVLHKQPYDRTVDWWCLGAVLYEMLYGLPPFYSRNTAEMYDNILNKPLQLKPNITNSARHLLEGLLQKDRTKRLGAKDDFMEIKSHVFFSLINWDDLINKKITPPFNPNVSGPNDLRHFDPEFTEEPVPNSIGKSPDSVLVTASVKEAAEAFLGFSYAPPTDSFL
Description: GSK_PKIS: SGK1 mean inhibition at 0.1 uM [Nanosyn]
OBSERVED_PROPERTY: inhibition (%)

[[record]]
molecule = "CCn1c(-c2nonc2N)nc2ccncc21"
reported_measurement = 0.13

[[record]]
molecule = "CC1=C(C(=O)Nc2ccc3[nH]ncc3c2)C(c2ccc(Cl)c(Cl)c2)CC(=O)N1 (stereo unspecified)"
reported_measurement = 0.54

[[record]]
molecule = "Nc1nc(-c2ccc3c(c2)C(=Cc2cc(Br)c(O)c(Br)c2)C(=O)N3)cs1"
reported_measurement = 0.99

[[record]]
molecule = "COc1ccc(-c2ccncc2)cc1C(N)=O"
reported_measurement = 2.81

[[record]]
molecule = "Cc1cc(O)cc(C)c1/C=C/c1cncc(-c2nn[nH]n2)c1"
reported_measurement = 3.17

[[record]]
molecule = "[O-][S+]1CCN(Cc2ccc(-c3ccc4ncnc(Nc5ccc(OCc6ccccc6)c(F)c5)c4c3)o2)CC1"
reported_measurement = 1.32

[[record]]
molecule = "Cc1ccc(NC(=O)c2ccnc(N3CCCC3)c2)cc1-c1ccc(C(=O)NCC2CC2)cc1"
reported_measurement = 5.73

[[record]]
molecule = "NC(=O)c1ccc(-c2nc(-c3ccccn3)c(-c3ccc4c(c3)OCO4)[nH]2)cc1"
reported_measurement = 1.94

[[record]]
molecule = "Cc1nn(C)c2cc(N(C)c3ccnc(Nc4cccc(S(N)(=O)=O)c4)n3)ccc12"
reported_measurement = 3.21

[[record]]
molecule = "COc1ccc(-c2coc3ncnc(N)c23)cc1"
reported_measurement = 2.68

[[record]]
molecule = "CCCN1CCC=C(c2ccc(Nc3nc(Nc4ccccc4C(N)=O)c4cc[nH]c4n3)c(C)c2)C1"
reported_measurement = 1.16

[[record]]
molecule = "CCn1c(-c2nonc2N)nc2cncc(C(=O)N3CC[C@H](N)C3)c21"
reported_measurement = 7.33

[[record]]
molecule = "CCn1c(-c2nonc2N)nc2c(N3CCCC3)nccc21"
reported_measurement = 0.28

[[record]]
molecule = "NS(=O)(=O)c1cccc(-c2ccc3c(NC(=O)C4CC4)n[nH]c3c2)c1"
reported_measurement = 1.71

[[record]]
molecule = "COC(=O)Nc1nc2cc(Oc3ccc(NC(=O)Nc4cccc(C(=O)O)c4)cc3)ccc2[nH]1"
reported_measurement = 1.3

[[record]]
molecule = "COc1cc(C=NNc2ncnc3c2cnn3-c2ccccc2)ccc1O"
reported_measurement = 4.35

[[record]]
molecule = "COc1ccc2cc(-c3c(-c4ccncc4)nc(-c4ccc([S+](C)[O-])cc4)n3C)ccc2c1 (stereo unspecified)"
reported_measurement = 1.97

[[record]]
molecule = "CCn1c(-c2nonc2N)nc2cnc(Oc3cccc(NC(=O)c4ccc(OCCN5CCOCC5)cc4)c3)cc21"
reported_measurement = 7.56

[[record]]
molecule = "CCCN1CCC(Oc2cc(Nc3nc(Nc4cccc(F)c4C(N)=O)c4cc[nH]c4n3)c(OC)cc2Cl)CC1"
reported_measurement = 0.54

[[record]]
molecule = "COc1cc2ncn(-c3cc(O[C@@H](C)c4ccccc4Cl)c(C(N)=O)s3)c2cc1OC"
reported_measurement = 3.98

[[record]]
molecule = "CCn1c(-c2nonc2N)nc2cncc(C(=O)N3CCNCC3)c21"
reported_measurement = 1.92

